# System: 229E human corona virus (hCoV)
# test method notes: 229E Cellular Assay (MRC5), live virus assay, ATPlite
# Type: cell-based, hCoV-229E
# measurement context: Human coronavirus 229E, MRC5, 144 h; MRC-5 cells, hCoV-229E MOI 0.05, 6 days, ATPlite; read-out: EC50 (229E)
Assign EC50 to each entry below.

Past entries and their recorded results:
molecule | assay result
CC(C)C[C@H]1C(=O)N2C[C@]3(C[C@H]2C#N)C(=O)Nc2ccc(cc23)CCCCCN1C(=O)c1cn(C2CC2)nn1 [Example 14] | < 100 nM
CC(C)C[C@H]1C(=O)N2C[C@]3(C[C@H]2C#N)C(=O)Nc2ccc(cc23)CCCCCN1C(=O)c1nnc(-c2ccccc2)[nH]1 [Example 13] | 100 to 1000 nM
CC(C)C[C@H]1C(=O)N2C[C@]3(C[C@H]2C#N)C(=O)Nc2ccc(cc23)CCCCCN1C(=O)c1cc2c(F)cc(F)cc2[nH]1 [Example 4] | < 100 nM
CC(C)C[C@H]1C(=O)N2C[C@]3(C[C@H]2C#N)C(=O)Nc2ccc(cc23)CCCCCN1C(=O)c1cn(-c2ccccc2)nn1 [Example 7] | < 100 nM
CC(C)C[C@H]1C(=O)N2C[C@]3(C[C@H]2C#N)C(=O)Nc2ccc(cc23)CCCCCCN1C(=O)c1cc2c(F)cc(F)cc2[nH]1 [Example 8] | 100 to 1000 nM

Okay, next one:
So what does the record say about EC50 for CC(C)C[C@H]1C(=O)N2C[C@]3(C[C@H]2C#N)C(=O)Nc2ccc(cc23)C(=O)CCCCN1C(=O)c1cc2c(F)cc(F)cc2[nH]1 [Example 27] ? < 100 nM

---

# Test system: 229E human corona virus (hCoV)
# test method notes: 229E Cellular Assay (MRC5), live virus assay, ATPlite
# Format: cell-based, hCoV-229E
# measurement context: MRC-5 cells, hCoV-229E MOI 0.05, 6 days, ATPlite; read-out: EC50 (229E)
measure: EC50

Which EC50 value belongs to CC(C)C[C@H]1C(=O)N2C[C@]3(C[C@H]2C#N)C(=O)Nc2ccc(cc23)C=CCCCN1C(=O)OCc1ccccc1 ? 100 to 1000 nM

---

# System: 229E human corona virus (hCoV)
# test method notes: 229E Cellular Assay (MRC5), live virus assay, ATPlite
# Format: cell-based, hCoV-229E
# measurement context: Human coronavirus 229E, MRC5, 144 h; MRC-5 cells, hCoV-229E MOI 0.05, 6 days, ATPlite; read-out: EC50 (229E)
measure: EC50

These recorded examples may help you get a feel for the data.
compound | EC50
CC(C)C[C@H]1C(=O)N2C[C@]3(C[C@H]2C#N)C(=O)Nc2ccc(cc23)CCCCCN1C(=O)c1cnn(-c2ccc(C(F)(F)F)cc2)c1 [Example 18] | < 100 nM
CC(C)C[C@H]1C(=O)N2C[C@]3(C[C@H]2C#N)C(=O)Nc2ccc(cc23)CCCCCN1C(=O)c1cn(C2CCC2)nn1 [Example 12] | < 100 nM

Now look at this entry.
Query: EC50; subject: CC(C)C[C@H]1C(=O)N2C[C@]3(C[C@H]2C#N)C(=O)Nc2ccc(cc23)CCCCCN1C(=O)OCc1ccccc1 [Example 2] 100 to 1000 nM

---

Kindly supply the reported IC50 values for the records listed here.
# study system: SARS-CoV-2 3CL-protease (Severe acute respiratory syndrome coronavirus 2 (2019-nCoV) (SARS-CoV-2))
# test method notes: biochemical
# measurement context: recombinant SARS-CoV-2 3CL-protease 10 nM, 30 min preincubation; read-out: FRET IC50

Solved cases (5 shown):
compound | assay result
CC(C)C[C@H]1C(=O)N2C[C@]3(C[C@H]2C#N)C(=O)Nc2ccc(cc23)CCCCCCN1C(=O)c1cc2c(F)cc(F)cc2[nH]1 | 100 to 1000 nM
CC(C)C[C@H]1C(=O)N2C[C@]3(C[C@H]2C#N)C(=O)Nc2ccc(cc23)CCCCCN1C(=O)c1cnn(-c2ccccc2Cl)c1 | < 100 nM
CC(C)C[C@H]1C(=O)N2C[C@]3(C[C@H]2C#N)C(=O)Nc2ccc(cc23)CCCCCN1C(=O)C(=O)NC1(c2ccc(F)cc2F)CC1 | < 100 nM
CC(C)C[C@H]1C(=O)N2C[C@]3(C[C@H]2C#N)C(=O)Nc2ccc(cc23)CCCCCN1C(=O)c1cc2c(F)cc(F)c(F)c2[nH]1 | < 100 nM
CC(C)C[C@H]1C(=O)N2C[C@]3(C[C@H]2C#N)C(=O)Nc2ccc(cc23)OCCCCN1C(=O)C(=O)NC1(c2ccc(F)cc2F)CC1 | < 100 nM

Could you now look at the following compound, please?
Which IC50 value belongs to CC(C)C[C@H]1C(=O)N2C[C@]3(C[C@H]2C#N)C(=O)Nc2ccc(cc23)C(O)CCCCN1C(=O)c1cc2c(F)cc(F)cc2[nH]1 (stereo partly drawn) ? < 100 nM

---

# System: 229E human corona virus (hCoV)
# test method notes: 229E Cellular Assay (MRC5), live virus assay, ATPlite
# Format: cell-based, hCoV-229E
# measurement context: Human coronavirus 229E, MRC5, 144 h; MRC-5 cells, hCoV-229E MOI 0.05, 6 days, ATPlite; read-out: EC50 (229E)
Exercise: for every item that follows, state its recorded EC50.

Before answering, review these 2 worked examples.
structure smiles string | assay result
CC(C)C[C@H]1C(=O)N2C[C@]3(C[C@H]2C#N)C(=O)Nc2ccc(cc23)CCCCCN1C(=O)c1cnn(C(C)(C)C)c1 | < 100 nM
CCCC[C@H]1C(=O)N2C[C@]3(C[C@H]2C#N)C(=O)Nc2ccc(cc23)CCCCCN1C(=O)c1cc2c(F)cc(F)c(F)c2[nH]1 | < 100 nM

Recorded EC50 of CCCC[C@H]1C(=O)N2C[C@]3(C[C@H]2C#N)C(=O)Nc2ccc(cc23)CCCCCN1C(=O)c1cc2c(F)cc(F)cc2[nH]1 , please. < 100 nM

---

# Test system: 229E human corona virus (hCoV)
# test method notes: 229E Cellular Assay (MRC5), live virus assay, ATPlite
# Format: cell-based, hCoV-229E
# measurement context: Human coronavirus 229E, MRC5, 144 h; MRC-5 cells, hCoV-229E MOI 0.05, 6 days, ATPlite; read-out: EC50 (229E)
measure: EC50

Count: 3. Required value per item: EC50.
1. CC(C)C[C@H]1C(=O)N2C[C@]3(C[C@H]2C#N)C(=O)Nc2ccc(cc23)CCCCCN1C(=O)C(=O)NC1(c2ccc(F)cc2F)CC1 [Example 24]
2. N#C[C@@H]1C[C@]23CN1C(=O)[C@H](Cc1ccccc1)N(C(=O)c1cc4c(F)cc(F)cc4[nH]1)CCCCCc1ccc(c2c1)NC3=O [Example 9]
3. CC(C)C[C@H]1C(=O)N2C[C@]3(C[C@H]2C#N)C(=O)Nc2ccc(cc23)CCCCCN1C(=O)c1cnn(-c2ccccc2C(F)(F)F)c1 [Example 21]

["< 100 nM", "< 100 nM", "< 100 nM"]

---

Would you mind telling me the reported IC50 of each entry?
# study system: SARS-CoV-2 3CL-protease (Severe acute respiratory syndrome coronavirus 2 (2019-nCoV) (SARS-CoV-2), UniProt P0DTD1)
# test method notes: biochemical
# measurement context: recombinant SARS-CoV-2 3CL-protease 10 nM, 30 min preincubation; read-out: FRET IC50

Below, each entry is followed by its recorded IC50 result.
structure smiles string | measure | assay result
CC(C)C[C@H]1C(=O)N2C[C@]3(C[C@H]2C#N)C(=O)Nc2ccc(cc23)C=CCCCN1C(=O)OCc1ccccc1 | IC50 | < 100 nM
CC(C)C[C@H]1C(=O)N2C[C@]3(C[C@H]2C#N)C(=O)Nc2ccc(cc23)CCCCCN1C(=O)c1cn(C2CC2)nn1 | IC50 | < 100 nM

Would you mind telling me what IC50 value was observed for CC(C)(C)C[C@H]1C(=O)N2C[C@]3(C[C@H]2C#N)C(=O)Nc2ccc(cc23)CCCCCN1C(=O)c1cc2c(F)cc(F)cc2[nH]1 ? < 100 nM

---

# Test system: 229E human corona virus (hCoV)
# test method notes: 229E Cellular Assay (MRC5), live virus assay, ATPlite
# Format: cell-based, hCoV-229E
# measurement context: Human coronavirus 229E, MRC5, 144 h; MRC-5 cells, hCoV-229E MOI 0.05, 6 days, ATPlite; read-out: EC50 (229E)
measure: EC50

Required: EC50, one value per compound below.
1. CC(C)C[C@H]1C(=O)N2C[C@]3(C[C@H]2C#N)C(=O)Nc2ccc(cc23)OCCCCN1C(=O)c1cc2c(F)cc(F)cc2[nH]1
2. CC(C)C[C@H]1C(=O)N2C[C@]3(C[C@H]2C#N)C(=O)Nc2ccc(cc23)CCCCCN1C(=O)c1nnn(-c2ccccc2)n1
3. CC(C)(C)C[C@H]1C(=O)N2C[C@]3(C[C@H]2C#N)C(=O)Nc2ccc(cc23)CCCCCN1C(=O)c1cc2c(F)cc(F)cc2[nH]1

< 0.1 µM
0.1 to 1 µM
< 0.1 µM
